Cited source for all entries: ChEMBL document CHEMBL4513146

Tested on: Staphylococcus aureus
Conditions: Concentration 32 ug.mL-1;; ASSAY_TEST Inhibition of Bacterial Growth; detection method Absorption (OD600); MEDIA CAMHB; plate type 384well; NBS; CORNING #3640; time 18 hr
Description: Antibacterial activity against Staphylococcus aureus MRSA ATCC 43300 (CO-ADD:GP_020); MIC in CAMBH media, using NBS plates, by OD(600)
Measured potencies and affinities stand elsewhere.
The label is rule met for Inhibition below 10% and rule not met for Inhibition equal to or exceeding 10%.

Prompt line: Take the compound CCc1ccc(NC(=O)Cn2nc3c(Oc4cccc(OC)c4)nccn3c2=O)cc1 and say whether its Inhibition is less than 10%.
Response line: rule met

Prompt line: Take the compound Cc1ccc(CNC(=O)CSc2nnc3c(=O)n(-c4ccccc4)ccn23)cc1 and say whether its Inhibition is less than 10%.
Response line: rule not met

Prompt line: Take the compound CSc1cccc(NC(=O)Cn2nc3c(SCc4ccc(Cl)cc4)nccn3c2=O)c1 and say whether its Inhibition is less than 10%.
Response line: rule met

Prompt line: Take the compound Cc1cc2nn(CC(=O)NCc3ccccc3)c(=O)n2c(Nc2ccc(C)c(F)c2)n1 and say whether its Inhibition is less than 10%.
Response line: rule met

Prompt line: Take the compound COc1ccccc1-n1ccn2c(SCC(=O)Nc3ccc4c(c3)OCO4)nnc2c1=O and say whether its Inhibition is less than 10%.
Response line: rule met

Prompt line: Take the compound COc1ccc(-c2cc3c4nn(CC(=O)Nc5ccc(OC)c(Cl)c5)c(=O)n4ccn3n2)cc1 and say whether its Inhibition is less than 10%.
Response line: rule met

Prompt line: Take the compound CCc1ccc(N(Cc2cccc(OC)c2)S(=O)(=O)c2cccn3cnnc23)cc1 and say whether its Inhibition is less than 10%.
Response line: rule not met

Prompt line: Take the compound CCc1nnc2c(SCC(=O)Nc3ccc(C)cc3Cl)nc3ccccc3n12 and say whether its Inhibition is less than 10%.
Response line: rule met

Prompt line: Take the compound CC(C)c1nnc2c(=O)n(CC(=O)Nc3cccc(C#N)c3)c3ccccc3n12 and say whether its Inhibition is less than 10%.
Response line: rule not met

----------
Tested on: Staphylococcus aureus
Details: Concentration 32 ug.mL-1;; ASSAY_TEST Inhibition of Bacterial Growth; detection method Absorption (OD600); MEDIA CAMHB; plate type 384well; NBS; CORNING #3640; time 18 hr
Potency and affinity values are given separately.
observation type: Inhibition (%)
Just the number please, in %, no unit attached.

Prompt line: GET /values?readout=Inhibition&item= COc1ccc(-c2cc3c4nnc(SCC(=O)Nc5cccc(C)c5C)n4ccn3n2)cc1
Response line: -11.43

Prompt line: GET /values?readout=Inhibition&item= CCc1ccc(N(Cc2ccccc2C)S(=O)(=O)c2cccn3c(CC)nnc23)cc1
Response line: 11.1

Prompt line: GET /values?readout=Inhibition&item= Cc1cc(C)cc(Nc2nc(C)cc3nn(CC(=O)Nc4cccc(Cl)c4)c(=O)n23)c1
Response line: 6.53

Prompt line: GET /values?readout=Inhibition&item= COC(=O)c1cccc(NC(=O)Cn2nc3c(Oc4ccccc4)nccn3c2=O)c1
Response line: 3.03

Prompt line: GET /values?readout=Inhibition&item= CCc1ccccc1Sc1nccn2c(=O)n(CC(=O)Nc3cccc(C)c3)nc12
Response line: 2.29

----------
Test system: Staphylococcus aureus
Details: Concentration 32 ug.mL-1;; ASSAY_TEST Inhibition of Bacterial Growth; detection method Absorption (OD600); MEDIA CAMHB; plate type 384well; NBS; CORNING #3640; time 18 hr
Potency and affinity values are given separately.
observation type: Inhibition (%)
Just the number please, in %, no unit attached.

Prompt line: GET /values?readout=Inhibition&item= COc1cc(NC(=O)C(C)Sc2nnc3c(=O)n(-c4ccccc4OC)ccn23)cc(OC)c1 (stereo not given)
Response line: 15.1

Prompt line: GET /values?readout=Inhibition&item= Cc1cc2nn(CC(=O)NC(C)C)c(=O)n2c(-c2ccc(C(F)(F)F)cc2)n1
Response line: -8.3

Prompt line: GET /values?readout=Inhibition&item= Cc1ccc(-c2ccc3nn(Cc4nc(-c5ccc(Cl)cc5)no4)c(=O)n3n2)cc1
Response line: 5.13

Prompt line: GET /values?readout=Inhibition&item= COc1cccc(-n2ccn3c(SCC(=O)Nc4ccc5c(c4)OCCO5)nnc3c2=O)c1
Response line: 11.59

Prompt line: GET /values?readout=Inhibition&item= Cc1nnc2c(SCC(=O)Nc3ccc(F)cc3F)nc3ccccc3n12
Response line: 11.73

Prompt line: GET /values?readout=Inhibition&item= COc1ccc(CCn2c(=O)c3sccc3n3c(=O)n(Cc4ccc(F)cc4)nc23)cc1OC
Response line: 2.92

Prompt line: GET /values?readout=Inhibition&item= Cc1cc2nn(CC(=O)NCc3ccco3)c(=O)n2c(Nc2ccc(C)c(F)c2)n1
Response line: 0.2

Prompt line: GET /values?readout=Inhibition&item= Cc1ccc(-c2ccc3nn(Cc4cccc(Br)c4)c(=O)n3n2)cc1
Response line: 2.3

Prompt line: GET /values?readout=Inhibition&item= COc1cccc(-n2ccn3c(SCC(=O)c4c(C)[nH]c5ccccc45)nnc3c2=O)c1
Response line: 10.32

Prompt line: GET /values?readout=Inhibition&item= COc1cccc(-n2ccn3c(SCC(=O)Nc4cc(F)ccc4F)nnc3c2=O)c1
Response line: 11.04

Prompt line: GET /values?readout=Inhibition&item= COc1ccc(NC(=O)Cn2nc3c(SCc4ccc(Cl)cc4)nccn3c2=O)cc1
Response line: 4.07

Prompt line: GET /values?readout=Inhibition&item= Cc1c(Cl)cccc1NC(=O)Cn1nc2c(SCc3ccccc3)nccn2c1=O
Response line: 2.18

Prompt line: GET /values?readout=Inhibition&item= CSc1cccc(NC(=O)Cn2nc3c(Sc4ccccc4)nccn3c2=O)c1
Response line: -5

Prompt line: GET /values?readout=Inhibition&item= Cc1cc2nn(CC(=O)Nc3ccc(F)cc3F)c(=O)n2c(Nc2ccc(C)c(F)c2)n1
Response line: 8.31

Prompt line: GET /values?readout=Inhibition&item= Cc1ccc(Oc2nccn3c(=O)n(CC(=O)Nc4cc(F)ccc4F)nc23)cc1
Response line: 15.96

Prompt line: GET /values?readout=Inhibition&item= Cc1ccc(Cl)cc1NC(=O)Cn1c(=O)c2nnc(C(C)C)n2c2ccccc21
Response line: 2.92

Prompt line: GET /values?readout=Inhibition&item= O=C(Cn1nc2c(N3CCOCC3)nccn2c1=O)NCc1ccc(F)cc1
Response line: 19.72

Prompt line: GET /values?readout=Inhibition&item= O=C(Cn1nc2c(Oc3ccccc3)nccn2c1=O)Nc1ccccc1F
Response line: 6.14

Prompt line: GET /values?readout=Inhibition&item= CC(C)n1c(=O)c2ccc(C(=O)NC3CCCC3)cc2n2c(=O)n(Cc3cccc(C(F)(F)F)c3)nc12
Response line: 8.2

Prompt line: GET /values?readout=Inhibition&item= O=C(CSc1nnc2c(=O)n(-c3ccc(Br)cc3)ccn12)c1ccc(F)cc1
Response line: 0.43

----------
Tested on: Staphylococcus aureus
Conditions: Concentration 32 ug.mL-1;; ASSAY_TEST Inhibition of Bacterial Growth; detection method Absorption (OD600); MEDIA CAMHB; plate type 384well; NBS; CORNING #3640; time 18 hr
Results with a measured potency or affinity are listed apart.
observation type: Inhibition (%)
Just the number please, in %, no unit attached.

Prompt line: Hi! What's the reported Inhibition for CC(C)c1ccc(NC(=O)Cn2nc3ccc(SCc4ccc(Cl)cc4)nn3c2=O)cc1 on Staphylococcus aureus?
Response line: 4.11

Prompt line: Hi! What's the reported Inhibition for Cc1ccccc1CSc1nnc2c(=O)n(-c3ccc(F)cc3)ccn12 on Staphylococcus aureus?
Response line: 16.33

Prompt line: Hi! What's the reported Inhibition for Cc1cccc(NC(=O)Cn2nc3c(Sc4ccccc4)nccn3c2=O)c1 on Staphylococcus aureus?
Response line: -16.15

Prompt line: Hi! What's the reported Inhibition for O=C(Cn1nc2c3cc(-c4ccc(F)cc4)nn3ccn2c1=O)N1CCN(c2ccccc2F)CC1 on Staphylococcus aureus?
Response line: -6.33

Prompt line: Hi! What's the reported Inhibition for C=Cc1ccc(CN(c2cccc(F)c2)S(=O)(=O)c2ccc3nnc(C)n3c2)cc1 on Staphylococcus aureus?
Response line: 2.75

----------
Would you mind telling me the reported Inhibition of each entry?
Tested on: Escherichia coli
Conditions: Concentration 32 ug.mL-1;; ASSAY_TEST Inhibition of Bacterial Growth; detection method Absorption (OD600); MEDIA CAMHB; plate type 384well; NBS; CORNING #3640; time 18 hr
Description: Antibacterial activity against Escherichia coli ATCC 25922 (CO-ADD:GN_001); MIC in CAMBH media using NBS plates, by OD(600)
Potency and affinity values are given separately.
Just the number please, in %, no unit attached.

Prompt line: GET /values?readout=Inhibition&item= Cc1ccc(Cn2nc3c(=O)n(-c4ccc(C)c(C)c4)ccn3c2=O)cc1
Response line: -0.87

Prompt line: GET /values?readout=Inhibition&item= COc1cccc(-n2ccn3c(SCC(=O)NC(C)C)nnc3c2=O)c1
Response line: -7.26

Prompt line: GET /values?readout=Inhibition&item= CCOc1ccc(-n2ccn3c(SCC(=O)c4ccc(OC)c(OC)c4)nnc3c2=O)cc1
Response line: 1.32

Prompt line: GET /values?readout=Inhibition&item= Cc1cccc(C)c1NC(=O)CSc1nc2ccccc2n2c(C)nnc12
Response line: -4.17

Prompt line: GET /values?readout=Inhibition&item= Cc1ccc(Oc2nccn3c(=O)n(CC(=O)Nc4ccc(F)cc4F)nc23)cc1
Response line: -0.38

Prompt line: GET /values?readout=Inhibition&item= CC(C)c1nnc2c(=O)n(CC(=O)Nc3ccc4c(c3)OCO4)c3ccccc3n12
Response line: -3.49

Prompt line: GET /values?readout=Inhibition&item= CCc1cccc(NC(=O)Cn2nc3ccc(SC(C)(C)C)nn3c2=O)c1
Response line: -1.32

Prompt line: GET /values?readout=Inhibition&item= COc1ccc(-n2ccn3c(=O)n(Cc4cc(C)ccc4C)nc3c2=O)cc1Cl
Response line: -0.01

Prompt line: GET /values?readout=Inhibition&item= COC(=O)c1ccc(NC(=O)Cn2nc3c4cc(-c5ccc(Cl)cc5)nn4ccn3c2=O)cc1
Response line: 4.04

Prompt line: GET /values?readout=Inhibition&item= CCOc1ccc(-n2ccn3c(SCc4cccc(C(F)(F)F)c4)nnc3c2=O)cc1
Response line: 1.02

Prompt line: GET /values?readout=Inhibition&item= Cc1nnc2c(=O)n(CC(=O)Nc3cccc(F)c3)c3ccccc3n12
Response line: 2.22

Prompt line: GET /values?readout=Inhibition&item= COc1cccc(-n2ccn3c(SCc4ccccc4Cl)nnc3c2=O)c1
Response line: -9.75

Prompt line: GET /values?readout=Inhibition&item= Cc1cc(C)cc(Nc2nc(C)cc3nn(CC(=O)Nc4ccc(F)cc4F)c(=O)n23)c1
Response line: -0.48

Prompt line: GET /values?readout=Inhibition&item= COc1ccc(NC(=O)C(C)Sc2nnc3c(=O)n(-c4ccccc4)ccn23)cc1 (stereo not given)
Response line: 4.26

Prompt line: GET /values?readout=Inhibition&item= Cc1cc2nn(CC(=O)Nc3cc(F)ccc3F)c(=O)n2c(Nc2ccc(C)c(F)c2)n1
Response line: -8.4

Prompt line: GET /values?readout=Inhibition&item= COC(=O)c1ccccc1NC(=O)Cn1nc2c(Oc3cccc(OC)c3)nccn2c1=O
Response line: -21.29

Prompt line: GET /values?readout=Inhibition&item= Cc1cccc(-c2nc(CSc3nc4ccccc4n4c(C)nnc34)c(C)o2)c1
Response line: 1.23

Prompt line: GET /values?readout=Inhibition&item= COc1cc(-c2nnc3c(=O)n(Cc4ccc(Cl)cc4)ccn23)cc(OC)c1OC
Response line: -0.28

Prompt line: GET /values?readout=Inhibition&item= COc1ccc(-c2cc3c4nn(CC(=O)NCc5ccc(Cl)cc5)c(=O)n4ccn3n2)cc1
Response line: 5.93

Prompt line: GET /values?readout=Inhibition&item= COc1cc(OC)c(NC(=O)Cn2nc3c4c5c(sc4ncn3c2=O)CC(C)CC5)cc1Cl (stereo not given)
Response line: 1.97
